- study_system: human TGFßRII (antigen of the Octet experiments) (human, UniProt P37173 23-166)
- Sequence (P37173 23-166): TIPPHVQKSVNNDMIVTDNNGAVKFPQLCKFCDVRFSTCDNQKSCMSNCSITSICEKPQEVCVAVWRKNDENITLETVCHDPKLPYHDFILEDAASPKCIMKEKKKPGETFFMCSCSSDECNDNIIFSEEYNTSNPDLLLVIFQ
# Lookup of reported pKd keyed by entry
Note: pKd values are expressed as the negative base-10 logarithm of concentration in M.

Observe how each entry below is paired with its result.
XENP36167 H1.184 L1 (antibody, V domains shown) VH: QLQVQESGPGLVKPSETLSLTCTVSGGSISESYFSWGWIRQPPGKGLEWIGSFYYGGKTYYNPSLKSRATISIDTSKNQFSLKLSSVTAADTAVYYCARGPTMIRGVIDSWGQGTLVTVSS VL: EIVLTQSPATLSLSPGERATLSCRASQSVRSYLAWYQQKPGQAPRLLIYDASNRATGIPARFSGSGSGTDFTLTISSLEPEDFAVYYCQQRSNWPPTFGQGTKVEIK = 8.36
XENP36186 H1.203 L1 (antibody, V domains shown) VH: QLQVQESGPGLVKPSETLSLTCTVSGGSISNAYFSWGWIRQPPGKGLEWIGSFYYGGKTYYNPSLKSRATISIDTSKNQFSLKLSSVTAADTAVYYCARGPTVIRGVIDSWGQGTLVTVSS VL: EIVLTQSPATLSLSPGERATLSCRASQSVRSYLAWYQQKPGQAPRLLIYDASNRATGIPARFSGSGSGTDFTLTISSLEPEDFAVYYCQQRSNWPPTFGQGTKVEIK = 8.19

Field: next binder
What value of pKd has been recorded for this entry: XENP36184 H1.201 L1 (antibody, V domains shown) VH: QLQVQESGPGLVKPSETLSLTCTVSGGSISNAYFSWGWIRQPPGKGLEWIGSFYYGGKTYYNPSLKSRATISIDTSKNQFSLKLSSVTAADTAVYYCARGPTLIRGVIDSWGQGTLVTVSS VL: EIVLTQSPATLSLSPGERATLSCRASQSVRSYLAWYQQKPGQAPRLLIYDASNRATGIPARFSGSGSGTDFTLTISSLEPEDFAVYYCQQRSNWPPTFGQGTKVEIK
8.28

From: patent US20220144956A1
